Target: Alpha-synuclein (Homo sapiens) (UniProt P37840)
Test: Inhibition of recombinant alpha-Synuclein (unknown origin) aggregation assessed as reduction in fluorescence intensity by measuring residual activity at 100 uM measured every 20 mins for 40 to 70 hrs by Thioflavin T based fluorescence analysis relative to control
Details: time 40-70 hrs
Reported Activity is given for each of the following molecules.
Experimental Readout: Activity (%)

>>> reported_result("COc1cccc2sc(NC(=O)c3ccc(C#N)cc3)nc12")
128
>>> reported_result("COc1cccc2sc(NC(=O)Nc3ccc(F)cc3)nc12")
145
>>> reported_result("COc1ccccc1NC(=O)Nc1nc2c(OC)cccc2s1")
199
>>> reported_result("COc1cccc2sc(NS(=O)(=O)c3ccccc3Cl)nc12")
19.3
>>> reported_result("COc1cccc2sc(NC(=O)c3ccccc3)nc12")
107
>>> reported_result("COc1cccc2sc(NC(=O)Nc3ccc(Cl)cc3)nc12")
173

---

Target: Alpha-synuclein (Homo sapiens) (UniProt P37840)
Assay: Inhibition of recombinant alpha-Synuclein (unknown origin) aggregation assessed as reduction in fluorescence intensity by measuring residual activity at 100 uM measured every 20 mins for 40 to 70 hrs by Thioflavin T based fluorescence analysis relative to control
Conditions: time 40-70 hrs
Activity for assorted molecules
Experimental Readout: Activity (%)

>>> reported_result("COc1cccc2sc(NC(=O)c3ccccc3[N+](=O)[O-])nc12")
102
>>> reported_result("COc1cccc2sc(NC(=O)Nc3ccc(F)cc3F)nc12")
184
>>> reported_result("COc1cccc2sc(NC(=O)c3ccc(F)cc3F)nc12")
128
>>> reported_result("COc1cccc2sc(NS(=O)(=O)c3cc(Cl)cc(Cl)c3)nc12")
39.3
>>> reported_result("COc1cccc2sc(NC(=O)Nc3ccccc3C)nc12")
148
>>> reported_result("O=S(=O)(Nc1ccc2cc[nH]c2c1)c1ccccc1I")
104
>>> reported_result("COc1cccc2sc(NS(=O)(=O)c3ccccc3F)nc12")
64.9
>>> reported_result("COc1cccc2sc(NS(=O)(=O)c3ccc(F)cc3F)nc12")
87.9
>>> reported_result("COc1cccc2sc(NC(=O)Nc3ccc(I)cc3)nc12")
141
>>> reported_result("COc1cccc2sc(NC(=O)c3ccccc3F)nc12")
98.7
>>> reported_result("COc1cccc2sc(NC(=O)c3cc(Cl)cc(Cl)c3)nc12")
95.4
>>> reported_result("COc1cccc2sc(NC(=O)Nc3ccc(Br)cc3)nc12")
170
>>> reported_result("O=C(Nc1ccc2cc[nH]c2c1)Nc1ccccc1I")
83.4
>>> reported_result("COc1cccc2sc(NC(=O)Nc3ccc([N+](=O)[O-])cc3)nc12")
79
>>> reported_result("O=C(Nc1ccc([N+](=O)[O-])cc1)Nc1ccc2cc[nH]c2c1")
3.6
>>> reported_result("COc1cccc2sc(NS(=O)(=O)c3cccc([N+](=O)[O-])c3)nc12")
40.1
>>> reported_result("COc1cccc2sc(NC(=O)c3ccc(C(F)(F)F)cc3)nc12")
116
>>> reported_result("COc1cccc2sc(NS(=O)(=O)c3ccc(I)cc3)nc12")
42.8
>>> reported_result("COc1cccc2sc(NC(=O)c3ccccc3I)nc12")
137
>>> reported_result("COc1cccc2sc(NC(=O)c3ccc(Cl)cc3)nc12")
116
>>> reported_result("COc1cccc2sc(NC(=O)c3ccc([N+](=O)[O-])cc3)nc12")
45.4
>>> reported_result("COc1cccc2sc(NC(=O)c3cccc([N+](=O)[O-])c3)nc12")
48.1
>>> reported_result("O=[N+]([O-])c1ccc(S(=O)(=O)Nc2ccc3[nH]ccc3c2)cc1")
97.6
>>> reported_result("O=C(Nc1ccc([N+](=O)[O-])cc1)Nc1cccc2[nH]ccc12")
4
>>> reported_result("COc1cccc2sc(NC(=O)Nc3ccc(C(F)(F)F)cc3)nc12")
94.8
>>> reported_result("O=[N+]([O-])c1ccc(S(=O)(=O)Nc2cccc3[nH]ccc23)cc1")
83.9
>>> reported_result("COc1cccc2sc(NC(=O)Nc3ccccc3)nc12")
130
>>> reported_result("COc1cccc2sc(NS(=O)(=O)c3ccccc3C)nc12")
32.7
>>> reported_result("COc1ccccc1C(=O)Nc1nc2c(OC)cccc2s1")
182
>>> reported_result("COc1cccc2sc(NS(=O)(=O)c3ccc(C#N)cc3)nc12")
46.1
>>> reported_result("COc1cccc2sc(NC(=O)c3ccccc3Cl)nc12")
262
>>> reported_result("COc1cccc2sc(NS(=O)(=O)c3cccc(C(F)(F)F)c3)nc12")
56
>>> reported_result("COc1cccc2sc(NC(=O)Nc3cccs3)nc12")
41.6
>>> reported_result("COc1cccc2sc(NC(=O)Nc3cccc([N+](=O)[O-])c3)nc12")
78.1
>>> reported_result("COc1cccc2sc(NC(=O)c3cccc(C(F)(F)F)c3)nc12")
84.7
>>> reported_result("O=C(Nc1ccc([N+](=O)[O-])cc1)Nc1ccc2[nH]ccc2c1")
2.9
>>> reported_result("O=C(Nc1ccc2[nH]ccc2c1)Nc1ccccc1I")
40.3
>>> reported_result("COc1cccc2sc(NS(=O)(=O)c3cccs3)nc12")
41.6
>>> reported_result("COc1cccc2sc(NS(=O)(=O)c3ccccc3)nc12")
74.6
>>> reported_result("COc1ccccc1S(=O)(=O)Nc1nc2c(OC)cccc2s1")
79.3

// provenance: ChEMBL document CHEMBL5523695
